Tested on: 786-0 renal
Test: NCI tumour cell line growth inhibition, 48 h
outcome.measure: TGI

Could you tell me which TGI is on file for C=C/C(C)=C/C[C@]1(C)[C@H](C)[C@@H](OC(=O)CCC)[C@H](O)[C@@]23C(=C[C@H](OC)C[C@@H]12)[C@@H](OC(=O)CCC)O[C@H]3OC(C)=O ? 0.888 µM

Which TGI value is on record for COc1cccc(CN(C)c2ccc(CO)c(Cl)c2)c1 ? > 67.6 µM

Param item = CCOC(=O)CN(Cn1cncn1)Cn1cncn1 ; retrieve measured TGI. > 100 µM

Item under review: CN1N=C(c2ccncc2)OC1c1cccc(C(F)(F)F)c1 (centres undefined) . Reported TGI? > 100 µM

Request the reported TGI associated with O=C1CC(C(CC(=O)c2ccccc2)c2ccccc2)C(=O)c2ccccc2N1 (centres undefined) > 100 µM

Bench note: what TGI did CCn1c(-c2cc3c([nH]c4ccccc43)c(-c3cccc(O)c3)n2)n[nH]c1=S show? 6.31 µM

Entry under review: CCOC(=O)CCC1(C(=O)OCC)CCCC1=O (centres undefined) . Reported TGI? > 100 µM

What measured TGI goes with CCC(COC(=O)CC[C@@H](NC(=O)C(C)NC(=O)C(C)OC1C(O)C(CO)OC(OCc2ccccc2)C1NC(C)=O)C(N)=O)NC1c2ccccc2Nc2cccc([N+](=O)[O-])c21 (some centres undefined) ? > 100 µM

For the compound shown here, CN(Cc1ccc(C(F)(F)F)cc1)CC(O)C(=O)Nc1ccc(Cl)cc1 (centres undefined) , give the reported TGI. 2.84 µM

----------
Tested on: OVCAR-3 ovarian
Assay: NCI tumour cell line growth inhibition, 48 h
outcome.measure: TGI

Tell me the measured TGI of COc1cccc(/C(Cl)=C(\C=O)c2cccc(OC)c2)c1 , please. 29.1 µM

TGI lookup needed for C=C/C(C)=C/C[C@]1(C)[C@H](C)[C@@H](OC(=O)CCC)[C@H](O)[C@@]23C(=C[C@H](OC)C[C@@H]12)[C@@H](OC(=O)CCC)O[C@H]3OC(C)=O , thanks. 0.4 µM

Dear colleague, I am looking for the recorded TGI of the following compound: CN1CCN(Cc2ccc(NC(=O)c3cncc(C#Cc4cnc(N)cc4C#N)c3)cc2C(F)(F)F)CC1 20.4 µM

Please look up its TGI: O=C1C(=O)N(c2ccc(Cl)cc2)C(=O)C(=O)C1c1nc2ccccc2s1 > 100 µM

Would you kindly share the measured TGI for CCOC(=O)c1cc2c(OCc3ccccc3)c(OC)cc3c2c(n1)N(c1ccc(OC)cc1)C(C)C3 (centres undefined) ? > 50 µM

Returns the measured TGI for the input compound. Input: O=[N+]([O-])c1cccc(-c2nc(-c3ccccc3)c(-c3ccccc3)[nH]2)c1 > 100 µM

Fill in: TGI of NC(=O)c1cc(N(CCO)CCO)c([N+](=O)[O-])cc1[N+](=O)[O-] is ___ > 100 µM

Which value of TGI has been reported for CCOC(=O)c1c(C)nc2c(c1-c1cn(-c3ccccc3)nc1-c1ccccc1)C(=O)c1ccccc1-2 in the records? > 100 µM

Reported TGI, compound CCOC(=O)C(NC(=O)CC)(Nc1ccc(S(=O)(=O)Nc2onc(C)c2C)cc1)C(F)(F)F (centres undefined) : ____ > 100 µM
